# Tgt: NK3 receptors (Homo sapiens, UniProt P29371)
# Construct: expressed in transfected cells
# Sequence (P29371 whole entry): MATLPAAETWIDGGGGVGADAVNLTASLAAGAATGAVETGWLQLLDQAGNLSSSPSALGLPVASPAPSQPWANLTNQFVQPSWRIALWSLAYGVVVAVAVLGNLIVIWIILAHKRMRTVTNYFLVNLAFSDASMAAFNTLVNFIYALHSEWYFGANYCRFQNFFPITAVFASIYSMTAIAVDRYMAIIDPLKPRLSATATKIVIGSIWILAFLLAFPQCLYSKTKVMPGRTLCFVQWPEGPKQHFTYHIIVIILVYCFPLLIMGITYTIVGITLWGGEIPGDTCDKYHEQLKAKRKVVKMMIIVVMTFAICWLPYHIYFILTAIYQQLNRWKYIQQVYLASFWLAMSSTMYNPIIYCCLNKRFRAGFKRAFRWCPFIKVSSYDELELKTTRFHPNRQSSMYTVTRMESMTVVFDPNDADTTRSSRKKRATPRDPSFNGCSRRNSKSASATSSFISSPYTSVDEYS
# Test details: Antagonism of IP1 in HEK293 cells with stable expression of NK3
# Type: cell-based
# Experimental parameters: agonist Senktide 3 nM, read-out: NK3R IC50 (nM) IP1
With a cut-off of 40 nM, any IC50 strictly below it is called met; any IC50 meeting it or above is called not met.

| Compound | Tgt | Assigned category |
| --- | --- | --- |
| C[C@@H]1c2nnc(-c3nc4cc(F)ccc4s3)n2CCN1C(=O)c1ccc(Cl)c(Cl)c1 [Example 11] | NK3 receptors (Homo sapiens, UniProt P29371) | not met |
| C[C@@H]1c2nnc(-c3nc4ccc(Cl)cc4s3)n2CCN1C(=O)c1ccc(Cl)cc1 [Example 20] | NK3 receptors (Homo sapiens, UniProt P29371) | met |
| C[C@@H]1c2nnc(-c3nc4ccc(F)cc4s3)n2CCN1C(=O)c1ccc(Cl)cc1 [Example 13] | NK3 receptors (Homo sapiens, UniProt P29371) | not met |
| Cc1cccc2sc(-c3nnc4n3CCN(C(=O)c3ccc(F)cc3)[C@@H]4C)nc12 [Example 22] | NK3 receptors (Homo sapiens, UniProt P29371) | not met |
| C[C@@H]1c2nnc(-c3nc4ccc(C#N)cc4s3)n2CCN1C(=O)c1ccc(F)cc1 [Example 21] | NK3 receptors (Homo sapiens, UniProt P29371) | met |
| COc1ccc2nc(-c3nnc4n3CCN(C(=O)c3ccc(F)cc3)[C@@H]4C)sc2c1 [Example 29] | NK3 receptors (Homo sapiens, UniProt P29371) | met |
| C[C@@H]1c2nnc(-c3nc(Cl)ns3)n2CCN1C(=O)c1cc(F)c(F)c(F)c1 [Example 58] | NK3 receptors (Homo sapiens, UniProt P29371) | not met |
| [2H]C([2H])([2H])N(c1nsc(-c2nnc3n2CCN(C(=O)c2ccc(Cl)cc2)[C@@H]3C)n1)C([2H])([2H])[2H] [Example 107] | NK3 receptors (Homo sapiens, UniProt P29371) | not met |
| Cc1ccc2nc(-c3nnc4n3CCN(C(=O)c3ccc(F)cc3)[C@@H]4C)sc2c1 [Example 24] | NK3 receptors (Homo sapiens, UniProt P29371) | not met |
| C[C@@H]1c2nnc(-c3nc4ccc(F)cc4s3)n2CCN1C(=O)c1ccc(Cl)c(Cl)c1 [Example 14] | NK3 receptors (Homo sapiens, UniProt P29371) | not met |
| C[C@@H]1c2nnc(-c3nc(Cl)ns3)n2CCN1C(=O)c1ccc(Cl)cc1 [Example 57] | NK3 receptors (Homo sapiens, UniProt P29371) | met |
| [2H]c1cc(C(=O)N2CCn3c(-c4nc5ccc(F)cc5s4)nnc3[C@H]2C)ccc1Cl [Example 101] | NK3 receptors (Homo sapiens, UniProt P29371) | not met |
| [2H]c1cc(C(=O)N2CCn3c(-c4nc5cc(F)c(F)cc5s4)nnc3[C@H]2C)ccc1Cl [Example 99] | NK3 receptors (Homo sapiens, UniProt P29371) | met |
| Cc1ccc2nc(-c3nnc4n3CCN(C(=O)c3ccc(Cl)c(Cl)c3)[C@@H]4C)sc2c1 [Example 26] | NK3 receptors (Homo sapiens, UniProt P29371) | met |
| Cc1cccc2cc(-c3nnc4n3CCN(C(=O)c3ccc(Cl)c(Cl)c3)[C@@H]4C)nn12 [Example 49] | NK3 receptors (Homo sapiens, UniProt P29371) | not met |
| [2H]c1cc(C(=O)N2CCn3c(-c4nc5cc(Cl)c(F)cc5s4)nnc3[C@H]2C)ccc1F [Example 105] | NK3 receptors (Homo sapiens, UniProt P29371) | not met |
